- Test system: Enterobacterales
- measurement-description: MIC, broth microdilution, CDC/FDA Antibiotic Resistance Isolate Bank (Example 7, Tables 8, 11, 12)
- Type: cell-based
- condition: Citrobacter freundii, KUB No. 5654, AR Bank # 157; read-out: MIC
For each of the molecules below, state its MIC.

Entry NCC[C@H](O)C(=O)N[C@@H]1C[C@H](N)[C@@H](O[C@H]2O[C@H](CN)[C@@H](O)[C@H](O)[C@H]2O)[C@H](O)[C@H]1O[C@H]1O[C@H](CO)[C@@H](O)[C@H](N)[C@H]1O [Amikacin, amikacin] : MIC on Enterobacterales = > 64 µg/mL

Entry CN(C)c1cc(NC(=O)CNC(C)(C)C)c(O)c2c1C[C@H]1C[C@H]3[C@H](N(C)C)C(=O)C(C(N)=O)=C(O)[C@@]3(O)C(=O)C1=C2O [Tigecyeline] : MIC on Enterobacterales = 0.5 µg/mL

Entry C[C@H]1COc2c(N3CCN(C)CC3)c(F)cc3c(=O)c(C(=O)O)cn1c23 [Levofloxacin, levofloxacin] : MIC on Enterobacterales = > 64 µg/mL

----------
For each of the compounds below, state its MIC.
- Tested on: A. baumannii
- measurement-description: MIC, broth microdilution, CDC/FDA Antibiotic Resistance Isolate Bank (Example 7, Tables 9, 13, 14)
- Type: cell-based, Acinetobacter baumannii
- condition: Acinetobacter baumannii, KUB No. 5723, AR Bank #290; read-out: MIC
Answer with a number only, understood to be in µg/mL.

Entry C[C@H]1COc2c(N3CCN(C)CC3)c(F)cc3c(=O)c(C(=O)O)cn1c23 : MIC on A. baumannii = 8

Entry CC(C)(O/N=C(\C(=O)N[C@@H]1C(=O)N2C(C(=O)[O-])=C(C[N+]3(CCNC(=O)c4ccc(O)c(O)c4Cl)CCCC3)CS[C@H]12)c1csc(N)n1)C(=O)O : MIC on A. baumannii = 0.5

Entry CN(C)c1cc(NC(=O)CNC(C)(C)C)c(O)c2c1C[C@H]1C[C@H]3[C@H](N(C)C)C(O)=C(C(N)=O)C(=O)[C@@]3(O)C(O)=C1C2=O : MIC on A. baumannii = 0.5

----------
- Test system: A. baumannii
- measurement-description: MIC, broth microdilution, CDC/FDA Antibiotic Resistance Isolate Bank (Example 7, Tables 9, 13, 14)
- Format: cell-based, Acinetobacter baumannii
- condition: Acinetobacter baumannii, KUB No. 5736, AR Bank #303; read-out: MIC
property-name: MIC

Reported MIC ( C[C@H]1COc2c(N3CCN(C)CC3)c(F)cc3c(=O)c(C(=O)O)cn1c23 ) = 16 µg/mL

Reported MIC ( CN(C)c1cc(NC(=O)CNC(C)(C)C)c(O)c2c1C[C@H]1C[C@H]3[C@H](N(C)C)C(O)=C(C(N)=O)C(=O)[C@@]3(O)C(O)=C1C2=O ) = 1 µg/mL

Reported MIC ( CO/N=C(\C(=O)N[C@@H]1C(=O)N2C(C(=O)[O-])=C(C[n+]3ccn4ncccc43)CS[C@H]12)c1nsc(N)n1 ) = 32 µg/mL

Reported MIC ( CC(C)(O/N=C(\C(=O)N[C@@H]1C(=O)N2C(C(=O)[O-])=C(C[N+]3(CCNC(=O)c4ccc(O)c(O)c4Cl)CCCC3)CS[C@H]12)c1csc(N)n1)C(=O)O ) = 0.12 µg/mL

Reported MIC ( NCC[C@H](O)C(=O)N[C@@H]1C[C@H](N)[C@@H](O[C@H]2O[C@H](CN)[C@@H](O)[C@H](O)[C@H]2O)[C@H](O)[C@H]1O[C@H]1O[C@H](CO)[C@@H](O)[C@H](N)[C@H]1O ) = > 64 µg/mL
